Ref: ChEMBL document CHEMBL2321784

biological target: Luciferin 4-monooxygenase (Photinus pyralis, UniProt P08659); experiment: Inhibition of recombinant firefly luciferase after 20 mins by luminescence assay
Sequence (P08659 whole entry): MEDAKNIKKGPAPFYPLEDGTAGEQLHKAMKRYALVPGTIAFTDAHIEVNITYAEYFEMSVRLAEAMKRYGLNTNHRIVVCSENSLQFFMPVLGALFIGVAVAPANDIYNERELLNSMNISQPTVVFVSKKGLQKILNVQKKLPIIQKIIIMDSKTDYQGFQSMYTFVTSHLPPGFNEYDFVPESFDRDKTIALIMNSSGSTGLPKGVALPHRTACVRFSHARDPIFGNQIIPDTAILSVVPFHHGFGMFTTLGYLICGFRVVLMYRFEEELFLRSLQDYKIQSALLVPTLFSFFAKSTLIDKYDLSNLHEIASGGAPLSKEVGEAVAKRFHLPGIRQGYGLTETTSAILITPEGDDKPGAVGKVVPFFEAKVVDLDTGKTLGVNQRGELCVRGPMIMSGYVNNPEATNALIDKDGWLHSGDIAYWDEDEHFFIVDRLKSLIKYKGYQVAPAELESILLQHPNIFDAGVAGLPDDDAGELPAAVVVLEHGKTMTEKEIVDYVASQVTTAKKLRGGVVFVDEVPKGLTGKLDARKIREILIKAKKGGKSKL
pIC50: −log10 of the molar value.
Give YES when the value for pIC50 is at least 7. Give NO when it is less.

Input line: hey, is pIC50 for this one >= 7? CC1(Cc2ccccc2)CC(c2ccc(Cl)cc2)=NO1 (racemic)
Output line: YES

---

Recorded pIC50 values for a group of molecules are listed next.
biological target: UniProt:P08659; experiment: Inhibition of recombinant firefly luciferase after 20 mins by luminescence assay
Recall that pIC50 is obtained by taking minus log10 of the concentration measured in molar.

Some molecules with recorded pIC50:
[
  {
    "smiles repr": "COc1ccccc1C1=NO[C@@H](Cc2ccccc2)O1",
    "pIC50": 5.37
  },
  {
    "smiles repr": "COc1ccc(C2=NO[C@@H](Cc3ccccc3)C2)cc1",
    "pIC50": 5.61
  }
]

Input line: Respond only with pIC50 recorded for c1ccc(C[C@@H]2CC(c3ccccc3)=NO2)cc1
Output line: 8.80

Input line: Respond only with pIC50 recorded for c1ccc(C[C@@H]2CC(c3cccc4ccccc34)=NO2)cc1
Output line: 5.60

Input line: Respond only with pIC50 recorded for Clc1ccc(C2=NO[C@@H](Cc3ccccc3)C2)cc1
Output line: 6.38

Input line: Respond only with pIC50 recorded for COc1cccc(C2=NO[C@H](Cc3ccccc3)C2)c1
Output line: 9.40

---

Recorded log10 IC50 values for a group of molecules are listed next.
molecular target: Luciferin 4-monooxygenase (Photinus pyralis); assay: Inhibition of recombinant firefly luciferase after 20 mins by luminescence assay
A difference of one corresponds to tenfold IC50; all values are log10 with IC50 in nM.

Some molecules with recorded log10 IC50:
[
  {
    "smiles repr": "N#Cc1ccc(C2=NO[C@@H](Cc3ccccc3)C2)cc1",
    "log10 IC50": 2.52
  },
  {
    "smiles repr": "c1ccc(C[C@@H]2CC(c3ccc4ccccc4c3)=NO2)cc1",
    "log10 IC50": 1.94
  },
  {
    "smiles repr": "c1ccc(C[C@H]2CC(c3ccccc3)=NO2)cc1",
    "log10 IC50": 2.24
  },
  {
    "smiles repr": "COc1ccc(C2=NO[C@H](Cc3ccccc3OC)C2)cc1",
    "log10 IC50": 0.26
  }
]

Note: attention shifts to another entry.
Input line: Please indicate recorded log10 IC50 of COc1ccc(C2=NO[C@@H](Cc3ccccc3)O2)cc1 measured with Luciferin 4-monooxygenase (Photinus pyralis).
Output line: 0.72
